# ASSAYED SYSTEM: RXRα (Homo sapiens, UniProt P19793)
# Sequence (P19793 whole entry, the tested form may be a part): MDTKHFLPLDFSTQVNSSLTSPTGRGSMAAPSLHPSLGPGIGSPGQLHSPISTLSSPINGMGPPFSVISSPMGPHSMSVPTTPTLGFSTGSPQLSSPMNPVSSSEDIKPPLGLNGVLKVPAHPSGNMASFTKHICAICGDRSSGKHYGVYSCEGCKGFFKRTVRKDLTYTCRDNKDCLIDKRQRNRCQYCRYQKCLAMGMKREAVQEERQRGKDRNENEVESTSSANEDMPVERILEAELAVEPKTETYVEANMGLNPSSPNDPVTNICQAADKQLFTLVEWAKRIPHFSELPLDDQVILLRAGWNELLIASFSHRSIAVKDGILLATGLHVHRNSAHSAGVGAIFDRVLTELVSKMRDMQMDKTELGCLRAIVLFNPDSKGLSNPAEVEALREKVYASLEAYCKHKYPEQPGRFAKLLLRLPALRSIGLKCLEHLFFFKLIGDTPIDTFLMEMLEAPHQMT
# ASSAY: nuclear receptor cellular GAL4 reporter assay
# COND: agonist and antagonist mode; read-out: potency in agonist and antagonist mode
READOUT LABEL: IC50

What does the record list as IC50 for CC1CCCN1C(=O)c1nc(C(=O)NCC(C)(C)O)sc1-c1ccc(C(O)(C(F)(F)F)C(F)(F)F)c(Cl)c1Cl (stereo not shown) ?
> 1.5 µM

====

# ASSAY: phase 1 single ascending dose study, pharmacokinetics
# Type: in vivo, human
# COND: both sexes, human, plasma, po, 100 mg, 100 mg single oral dose, fasted, n=9; mean (SD); read-out: t1/2 (converted)
# Procedure: Based on mean values, dose normalized overall exposure (AUC216h, AUC∞) also appeared to increase proportionally with dose. Informed consent was obtained from all participants. No formal sample size and power calculations were performed. Plasma samples with K2EDTA anticoagulant were treated with acetonitrile for protein extraction then processed with liquid chromatography coupled to tandem mass spectrometry. […]
READOUT LABEL: half-life (h)
Hi! Could you send only the number? It should be in h, unit omitted.

Field request: half-life | item: CC1CCCN1C(=O)c1nc(C(=O)NCC(C)(C)O)sc1-c1ccc(C(O)(C(F)(F)F)C(F)(F)F)c(Cl)c1Cl (stereo not shown)
170
